Cited source for all entries: PubChem BioAssay AID1963830

System: 922993-354-T-J3-PDC complex spheroid viability;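 also: spheroids exposed to the agents for one week; 100% = DMSO vehicle control wells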
Assay: Anticancer human tumor 922993-354-T-J3-PDC patient-derived endometrial carcinoma cell line growth inhibition [POLQ]
Settings: second compound 0.1 µM; first compound 1 µM; hits give low values
I'd be grateful if you could share measured viability, T/C for these entries.
Express it in %; write the number only.

// field: viability, T/C; key: CC1COCCN1c1cc(C2(O)CC3CCC(C2)O3)c2cnn(-c3ccn[nH]3)c2n1 (stereo not given) + COC1C(OC(N)=O)C(O)C(Oc2ccc3c(O)c(NC(=O)c4ccc(O)c(CC=C(C)C)c4)c(=O)oc3c2C)OC1(C)C ; value = 26.7

// field: viability, T/C; key: CNCc1ccc(-c2[nH]c3cc(F)cc4c3c2CCNC4=O)cc1 + COC1C(OC(N)=O)C(O)C(Oc2ccc3c(O)c(NC(=O)c4ccc(O)c(CC=C(C)C)c4)c(=O)oc3c2C)OC1(C)C ; value = 90

// field: viability, T/C; key: Nc1ccn(C2OC(CO)C(O)C2(F)F)c(=O)n1 (stereo not given) + Nc1ccc(C#CCN(C(=O)Cc2ncc(C(F)(F)F)cc2C(F)(F)F)c2ccc(F)cc2)nn1 ; value = 21.9

// field: viability, T/C; key: O=C(c1cc(Cc2n[nH]c(=O)c3ccccc23)ccc1F)N1CCN(C(=O)C2CC2)CC1 + Nc1ccc(C#CCN(C(=O)Cc2ncc(C(F)(F)F)cc2C(F)(F)F)c2ccc(F)cc2)nn1 ; value = 98

// field: viability, T/C; key: CCc1cc2c(N3CCc4c(cc(Cn5ccnc5)cc4-c4cn(C)nc4C(F)(F)F)C3=O)cc(C)nc2c(OC)n1 + COC1C(OC(N)=O)C(O)C(Oc2ccc3c(O)c(NC(=O)c4ccc(O)c(CC=C(C)C)c4)c(=O)oc3c2C)OC1(C)C ; value = 98.1

// field: viability, T/C; key: CC1COCCN1c1cc(-c2ccnn2C)c2ccnc(-c3ccn[nH]3)c2n1 (stereo not given) + COC1C(OC(N)=O)C(O)C(Oc2ccc3c(O)c(NC(=O)c4ccc(O)c(CC=C(C)C)c4)c(=O)oc3c2C)OC1(C)C ; value = 9.37

// field: viability, T/C; key: CC(C)n1c(=O)n(C)c2cnc3cc(F)c(-c4ccc(OCCCN5CCCCC5)nc4)cc3c21 + Nc1ccc(C#CCN(C(=O)Cc2ncc(C(F)(F)F)cc2C(F)(F)F)c2ccc(F)cc2)nn1 ; value = 95.3

// field: viability, T/C; key: C=CCn1c(=O)c2cnc(Nc3ccc(N4CCN(C)CC4)cc3)nc2n1-c1cccc(C(C)(C)O)n1 + COC1C(OC(N)=O)C(O)C(Oc2ccc3c(O)c(NC(=O)c4ccc(O)c(CC=C(C)C)c4)c(=O)oc3c2C)OC1(C)C ; value = 103

// field: viability, T/C; key: C=CCn1c(=O)c2cnc(Nc3ccc(N4CCN(C)CC4)cc3)nc2n1-c1cccc(C(C)(C)O)n1 + Cc1cccc(N(C)C(=O)C2C(O)CCN2c2nc(C)cc(C(F)(F)F)c2C#N)c1 ; value = 101

// field: viability, T/C; key: C#Cc1c(F)ccc2cc(O)cc(-c3ncc4c(N5CC6CCC(C5)N6)nc(OCC56CCCN5CC(F)C6)nc4c3F)c12 (stereo not given) + COC1C(OC(N)=O)C(O)C(Oc2ccc3c(O)c(NC(=O)c4ccc(O)c(CC=C(C)C)c4)c(=O)oc3c2C)OC1(C)C ; value = 90.3
